Values compiled from patent US20250213735A1.

ASSAYED SYSTEM: hNPY1R (Homo sapiens (Human))
ASSAY DETAILS: NPY1R binding assay (SK-N-MC membrane, [125I]-Peptide YY competition)
PROTOCOL CONDITIONS: crude SK-N-MC membranes endogenously expressing NPY1R; [125I]-Peptide YY (human) 0.05 nM; 120 min at room temperature; read-out: hNPY1R binding Ki
ATTRIBUTE MEASURED: Ki

| COMPOUND | RESULT |
| --- | --- |
| CCC(=O)NCCNC(=O)/N=C(/N)NCCC[C@@H](NC(=O)[C@H](c1ccc(OCCCNC(=O)CCC(=O)NCCNC(=O)CCC(C(=O)O)N2CCN(CC(=O)O)CCN(CC(=O)O)CCN(CC(=O)O)CC2)cc1)N1Cc2ccccc2C1)C(=O)NCc1c(F)cc(O)cc1F (some centres unmarked) | < 10 nM |
| N=C(N)NCCC[C@@H](NC(=O)C(c1ccccc1)N1CCC2(CC1)CC(F)(F)C2)C(=O)NCc1ccc(O)cc1 (some centres unmarked) | 100 to 1000 nM |
| CCC(=O)NCCNC(=O)/N=C(/N)NCCC[C@@H](NC(=O)[C@H](c1ccccc1)N1Cc2cccc(NCCCNC(=O)C[C@H]3NC(=O)[C@@H](CCCNC(=O)CN4CCN(CC(=O)O)CCN(CC(=O)O)CCN(CC(=O)O)CC4)NC3=O)c2C1)C(=O)NCc1c(F)cc(O)cc1F | < 10 nM |
| CC1(C)CCCN(C(C(=O)N[C@H](CCCNC(=N)N)C(=O)NCc2ccc(O)cc2)c2ccccc2)C1 (some centres unmarked) | 100 to 1000 nM |
| CC(C)C1CCN(C(C(=O)N[C@H](CCCNC(=N)N)C(=O)NCc2ccc(O)cc2)c2ccccc2)CC1 (some centres unmarked) | 10 to 100 nM |

---

ASSAYED SYSTEM: hNPY1R (Homo sapiens (Human), UniProt P25929)
Sequence (P25929 whole entry): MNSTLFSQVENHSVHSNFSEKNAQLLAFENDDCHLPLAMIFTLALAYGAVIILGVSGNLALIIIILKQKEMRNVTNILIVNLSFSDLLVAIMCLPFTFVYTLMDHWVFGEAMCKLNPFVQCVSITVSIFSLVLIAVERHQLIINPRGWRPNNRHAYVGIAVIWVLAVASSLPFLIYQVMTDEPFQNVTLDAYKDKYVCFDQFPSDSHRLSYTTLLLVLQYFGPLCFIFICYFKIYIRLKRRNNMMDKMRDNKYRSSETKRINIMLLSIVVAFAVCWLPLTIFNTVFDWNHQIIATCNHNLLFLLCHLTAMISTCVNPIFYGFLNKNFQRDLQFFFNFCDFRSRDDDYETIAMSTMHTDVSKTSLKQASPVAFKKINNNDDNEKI
ASSAY DETAILS: NPY1R binding assay (SK-N-MC membrane, [125I]-Peptide YY competition)
PROTOCOL CONDITIONS: crude SK-N-MC membranes endogenously expressing NPY1R; [125I]-Peptide YY (human) 0.05 nM; 120 min at room temperature; read-out: hNPY1R binding Ki

| COMPOUND | Ki |
| --- | --- |
| CCC(=O)NCCNC(=O)/N=C(/N)NCCC[C@@H](NC(=O)[C@H](c1ccc(OCCCN2CCN(C(=O)CCNC(=O)CN3CCN(CC(=O)O)CCN(CC(=O)O)CCN(CC(=O)O)CC3)CC2)cc1)N1Cc2ccccc2C1)C(=O)NCc1c(F)cc(O)cc1F | < 0.01 µM |
| CCC(=O)NCCNC(=O)/N=C(/N)NCCC[C@@H](NC(=O)[C@H](c1ccc(OCCCNC(=O)CCN(C)CCNC(=O)CN2CCN(CC(=O)O)CCN(CC(=O)O)CCN(CC(=O)O)CC2)cc1)N1Cc2ccccc2C1)C(=O)NCc1c(F)cc(O)cc1F | < 0.01 µM |
| CCC(=O)NCCNC(=O)/N=C(/N)NCCC[C@@H](NC(=O)[C@H](c1ccc(OCCCNC(=O)CCOCCNC(=O)CN2CCN(CC(=O)O)CCN(CC(=O)O)CCN(CC(=O)O)CC2)cc1)N1Cc2ccccc2C1)C(=O)NCc1ccc(O)cc1 | < 0.01 µM |
| N=C(N)NCCC[C@@H](NC(=O)C(c1ccccc1)N1CCC2(CCCCC2)CC1)C(=O)NCc1ccc(O)cc1 (stereo partly shown) | 0.1 to 1 µM |
| CCC1CCN(C(C(=O)N[C@H](CCCNC(=N)N)C(=O)NCc2ccc(O)cc2)c2ccccc2)CC1 (stereo partly shown) | 0.01 to 0.1 µM |
| CCC(=O)NCCNC(=O)/N=C(/N)NCCC[C@@H](NC(=O)[C@H](c1cccc(NCCCNC(=O)CCC(=O)NCCNC(=O)CN2CCN(CC(=O)O)CCN(CC(=O)O)CCN(CC(=O)O)CC2)c1)N1Cc2ccccc2C1)C(=O)NCc1ccc(O)cc1 | < 0.01 µM |
| N=C(N)NCCC[C@@H](NC(=O)[C@H](c1ccccc1)N1Cc2ccccc2C1=O)C(=O)NCc1ccc(O)cc1 [71A] | > 1 µM |
| CCC(=O)NCCNC(=O)/N=C(/N)NCCC[C@@H](NC(=O)[C@H](c1ccccc1)N1Cc2ccccc2C1)C(=O)NCc1ccc(O)cc1 [60A] | < 0.01 µM |
| CCC(=O)NCCNC(=O)/N=C(/N)NCCC[C@@H](NC(=O)[C@H](c1ccc(OCCCNC(=O)CCOCCNC(=O)c2ccc(CNC(=O)CN3CCN(CC(=O)O)CCN(CC(=O)O)CCN(CC(=O)O)CC3)cc2)cc1)N1Cc2ccccc2C1)C(=O)NCc1ccc(O)cc1 | < 0.01 µM |
| CC1(C)C2CN([C@@H](C(=O)N[C@H](CCCNC(=N)N)C(=O)NCc3ccc(O)cc3)c3ccccc3)CC21 (stereo partly shown) [88B] | > 1 µM |

---

# key: entry, value: Ki
ASSAYED SYSTEM: hNPY1R (Homo sapiens (Human), UniProt P25929)
ASSAY DETAILS: NPY1R binding assay (SK-N-MC membrane, [125I]-Peptide YY competition);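 also: bound radioligand separated by filtration over GF/C filter plates and counted, Ki obtained by non-linear regression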
PROTOCOL CONDITIONS: crude SK-N-MC membranes endogenously expressing NPY1R; [125I]-Peptide YY (human) 0.05 nM; 120 min at room temperature; read-out: hNPY1R binding Ki
ATTRIBUTE MEASURED: Ki

| MOLECULE | RESULT |
| --- | --- |
| CCC(=O)NCCNC(=O)/N=C(/N)NCCC[C@@H](NC(=O)[C@H](c1ccc(OCCCN(C)CCCCCNC(=O)CN2CCN(CC(=O)O)CCN(CC(=O)O)CCN(CC(=O)O)CC2)cc1)N1Cc2ccccc2C1)C(=O)NCc1c(F)cc(O)cc1F | < 10 nM |
| CCC(=O)NCCNC(=O)/N=C(/N)NCCC[C@@H](NC(=O)[C@H](c1cccc(NCCCNC(=O)NOCCNC(=O)CN2CCN(CC(=O)O)CCN(CC(=O)O)CCN(CC(=O)O)CC2)c1)N1Cc2ccccc2C1)C(=O)NCc1ccc(O)cc1 | < 10 nM |
| CCC(=O)NCCNC(=O)/N=C(/N)NCCC[C@@H](NC(=O)[C@H](c1cccc(NC(=O)CCCNc2c(NCCCCCCNC(=O)CN3CCN(CC(=O)O)CCN(CC(=O)O)CCN(CC(=O)O)CC3)c(=O)c2=O)c1)N1Cc2ccccc2C1)C(=O)NCc1c(F)cc(O)cc1F (single isomer, unassigned) [31A] | < 10 nM |
| CC(C)CC1CCN(C(C(=O)N[C@H](CCCNC(=N)N)C(=O)NCc2ccc(O)cc2)c2ccccc2)CC1 (stereo partly shown) | 100 to 1000 nM |
| CCC(=O)NCCNC(=O)/N=C(/N)NCCC[C@@H](NC(=O)[C@H](c1cccc(NCCCNc2c(NCCCCCCNC(=O)CN3CCN(CC(=O)O)CCN(CC(=O)O)CCN(CC(=O)O)CC3)c(=O)c2=O)c1)N1Cc2ccccc2C1)C(=O)NCc1ccc(O)cc1 | < 10 nM |
| CCC(=O)NCCNC(=O)/N=C(/N)NCCC[C@@H](NC(=O)[C@@H](c1cccc(NC(=O)CCCNC(=O)CCCCCNC(=O)CN2CCN(CC(=O)O)CCN(CC(=O)O)CCN(CC(=O)O)CC2)c1)N1Cc2ccccc2C1)C(=O)NCc1ccc(O)cc1 | < 10 nM |
| CCC(=O)NCCNC(=O)/N=C(/N)NCCC[C@@H](NC(=O)[C@H](c1ccc(OCCCNC(=O)CCC(=O)NCCOCCNC(=O)CN2CCN(CC(=O)O)CCN(CC(=O)O)CCN(CC(=O)O)CC2)cc1)N1Cc2ccccc2C1)C(=O)NCc1c(F)cc(O)cc1F | < 10 nM |
| CCC(=O)NCCNC(=O)/N=C(/N)NCCC[C@@H](NC(=O)[C@@H](c1cccc(NC(=O)CCCNc2c(NCCCCCCNC(=O)CN3CCN(CC(=O)O)CCN(CC(=O)O)CCN(CC(=O)O)CC3)c(=O)c2=O)c1)N1Cc2ccccc2C1)C(=O)NCc1c(F)cc(O)cc1F (single isomer, unassigned) [31B] | < 10 nM |
| CCC(=O)NCCNC(=O)/N=C(/N)NCCC[C@@H](NC(=O)[C@@H](c1ccc(CCCOCCOCCNC(=O)CN2CCN(CC(=O)O)CCN(CC(=O)O)CCN(CC(=O)O)CC2)cc1)N1Cc2ccccc2C1)C(=O)NCc1c(F)cc(O)cc1F (single isomer, unassigned) | 10 to 100 nM |
| CCC(=O)NCCNC(=O)/N=C(/N)NCCC[C@@H](NC(=O)[C@H](c1ccc(OCCCNC(=O)[C@@H](CC(N)=O)NC(=O)CCNC(=O)CN2CCN(CC(=O)O)CCN(CC(=O)O)CCN(CC(=O)O)CC2)cc1)N1Cc2ccccc2C1)C(=O)NCc1c(F)cc(O)cc1F | < 10 nM |
